For each entry below, report its pIC50 value.
tested on: 616215-338-R-J1-PDC complex spheroid viability; test: Anticancer human tumor 616215-338-R-J1-PDC patient-derived colon adenocarcinoma cell line growth inhibition [RAS]; conditions: curve of first compound; second compound 1 µM;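 further: spheroids exposed to agents for seven days before viability readout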
Answers are plain numbers, as −log10 of the molar value.

Some entries whose results are on file:
C[C@@H](NC(=O)c1ncnc(N)c1Cl)c1ncc(C(=O)Nc2cc(C(F)(F)F)c(Cl)cn2)s1 + C#Cc1c(F)ccc2cc(O)cc(-c3ncc4c(N5CC6CCC(C5)N6)nc(OCC56CCCN5CC(F)C6)nc4c3F)c12: 5.22
CC1(C)CCC(Nc2ncc(C(F)(F)F)c(-c3c[nH]c4c(P(C)(C)=O)c(C#N)ccc34)n2)CN1 (configuration not stated) + C=CC(=O)N1CCN(c2nc(OCC3CCCN3C)nc3c(F)c(-c4nc(N)cc(C)c4C(F)(F)F)c(Cl)cc23)C(C)C1: 8.05
CC1(C)CCC(Nc2ncc(C(F)(F)F)c(-c3c[nH]c4c(P(C)(C)=O)c(C#N)ccc34)n2)CN1 (configuration not stated) + C#Cc1c(F)ccc2cc(O)cc(-c3ncc4c(N5CC6CCC(C5)N6)nc(OCC56CCCN5CC(F)C6)nc4c3F)c12: 7.97

Now consider a different compound.
Data request: Consider the compound CC(C)NCC(C(=O)N1CCN(c2ncnc3c2C(C)CC3O)CC1)c1ccc(Cl)cc1 (configuration not stated) + C=CC(=O)N1CCN(c2nc(OCC3CCCN3C)nc3c(F)c(-c4nc(N)cc(C)c4C(F)(F)F)c(Cl)cc23)C(C)C1 and give its measured pIC50.
Data returned: 5.02
